# credit: patent US8551721B2

Biological target: UGT 1A1 (Homo sapiens)
Sequence (P22309 26-533): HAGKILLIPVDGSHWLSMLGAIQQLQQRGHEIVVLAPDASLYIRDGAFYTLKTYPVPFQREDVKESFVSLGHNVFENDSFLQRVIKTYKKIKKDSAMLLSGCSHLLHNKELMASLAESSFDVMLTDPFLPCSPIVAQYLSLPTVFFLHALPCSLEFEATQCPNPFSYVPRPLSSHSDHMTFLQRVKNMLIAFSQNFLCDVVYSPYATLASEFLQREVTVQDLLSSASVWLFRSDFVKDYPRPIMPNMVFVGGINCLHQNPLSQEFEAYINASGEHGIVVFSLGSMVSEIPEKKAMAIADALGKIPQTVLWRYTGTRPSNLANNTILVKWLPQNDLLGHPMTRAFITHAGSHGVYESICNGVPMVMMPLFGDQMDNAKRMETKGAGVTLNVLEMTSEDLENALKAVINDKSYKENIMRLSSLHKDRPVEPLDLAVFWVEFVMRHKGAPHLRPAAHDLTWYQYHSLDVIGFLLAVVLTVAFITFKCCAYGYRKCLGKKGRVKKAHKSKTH
Experiment: Inhibition of recombinant UGT 1A1 supersomes by diclofenac, probe compound 3138
Settings: 0.1 mg/mL Supersomes, 20 μM compound 3138, 90 minutes at 37° C.
Method: The invention includes a method of determining activity of the uridine 5′-diphospho-glucuronosyltransferase (UDP-glucuronosyltransferase, or UGT) family enzymes in vitro. […] Following the UGT enzyme reaction, an equal volume of P450-Glo Luciferin Detection Reagent (Promega) containing 15-30 mM D-cysteine-HCl.H2O (Sigma) was added and the plate was mixed and incubated at room temperature, typically for 20-30 minutes. […]
READOUT_TYPE: pIC50
The quantity pIC50 is defined as the negative base-10 logarithm of the molar concentration.

What the record says about `O=C(O)Cc1ccccc1Nc1c(Cl)cccc1Cl` : pIC50 is 3.63
